system: A498 renal; assay: NCI tumour cell line growth inhibition, 48 h; in the data active means GI50 below about 0.43 µM; inactive means the rest
Labels: TRUE for active, FALSE for inactive

In [3]: df
Out[3]:
                                   compound  measured_target  class_assignment
0  N/C(=N/O)NOCCC(N)C(=O)O (stereo not given)       A498 renal             FALSE
1  c1ccc2cc(Cn3c(-c4cccc5ccccc45)[n+](Cc4ccc5ccccc5c4)c4c5ccccc5c5ccccc5c43)ccc2c1       A498 renal              TRUE
2  Cc1cc(C2CC(O)C(CO)O2)c(Br)cc1Br (stereo not given)       A498 renal             FALSE
3   COc1ccc(COc2ccc(Cc3cnc(N)nc3N)cc2OC)cc1       A498 renal             FALSE
4              Nc1ncnc2c1ncn2Cc1ccc(CCl)cc1       A498 renal             FALSE
5  CCN(Cc1c(F)cccc1C(F)(F)F)c1ccc(CO)c(Cl)c1       A498 renal              TRUE
6  COc1cccc(/C=C/C(=O)c2cc3c(N)c(C(=O)Nc4ccccc4)sc3nc2C)c1       A498 renal             FALSE
7               Nc1cc2c3ccccc3ccc2c2ccccc12       A498 renal             FALSE
8  COc1ccc(N2CCN(c3nc(-c4ccccn4)nc4sc5c(c34)CCCCCC5)CC2)cc1       A498 renal             FALSE
9  CN1c2cccc[c]2[Sn]([CH3])([CH3])[c]2ccccc21       A498 renal              TRUE
